Cited source: paper doi:10.1101/2020.09.15.297887

test-target: PARP1 (UniProt P09874 1-1014)
Sequence (P09874 whole entry): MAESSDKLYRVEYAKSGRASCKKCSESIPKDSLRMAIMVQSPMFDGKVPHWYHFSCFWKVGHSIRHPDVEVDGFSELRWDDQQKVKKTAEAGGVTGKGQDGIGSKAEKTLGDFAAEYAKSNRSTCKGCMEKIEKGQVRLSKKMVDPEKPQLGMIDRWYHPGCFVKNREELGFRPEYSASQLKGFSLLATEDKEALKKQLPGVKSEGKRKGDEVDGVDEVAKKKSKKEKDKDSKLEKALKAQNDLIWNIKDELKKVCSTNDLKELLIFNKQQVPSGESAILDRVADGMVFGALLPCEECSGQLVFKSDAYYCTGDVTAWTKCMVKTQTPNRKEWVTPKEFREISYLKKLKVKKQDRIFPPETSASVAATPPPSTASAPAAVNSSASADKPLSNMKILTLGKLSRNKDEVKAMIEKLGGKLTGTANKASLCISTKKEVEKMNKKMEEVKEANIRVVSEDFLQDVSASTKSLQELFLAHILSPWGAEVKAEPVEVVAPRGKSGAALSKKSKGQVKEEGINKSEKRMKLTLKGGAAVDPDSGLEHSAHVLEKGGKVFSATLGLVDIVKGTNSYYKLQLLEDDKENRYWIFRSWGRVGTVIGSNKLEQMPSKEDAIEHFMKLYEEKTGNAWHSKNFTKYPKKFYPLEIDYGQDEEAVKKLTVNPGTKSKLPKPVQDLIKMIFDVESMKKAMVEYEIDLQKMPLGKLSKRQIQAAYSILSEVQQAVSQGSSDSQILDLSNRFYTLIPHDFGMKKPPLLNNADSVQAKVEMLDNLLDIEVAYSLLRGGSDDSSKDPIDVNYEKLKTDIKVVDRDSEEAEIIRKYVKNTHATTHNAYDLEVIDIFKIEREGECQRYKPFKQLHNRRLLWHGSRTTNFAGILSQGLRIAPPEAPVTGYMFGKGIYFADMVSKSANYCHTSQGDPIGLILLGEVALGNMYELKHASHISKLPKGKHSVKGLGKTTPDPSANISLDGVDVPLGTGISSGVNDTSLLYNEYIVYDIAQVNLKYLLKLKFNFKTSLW
protocol-notes: fluorescence polarization
readout-kind: pKd
Worth noting: pKd values are minus log10 of concentrations stated in mol/L.

# binder GCTGAGCTTCTGGTGAAGCTCAGCTCGCGGCAGCTGGTGCTGCCGCGA (structured_DNA, internal fluorescein-dT (iFluorT) at position 8) [DNA dumbbell with single-strand break] ; its pKd = 7.15
